Tested on: human SMAD7 mRNA
Assay: Dose-dependent inhibition of human SMAD7 mRNA expression in Hep3B cells (Example 3, Study 1 and 2)
Format: cell-based
Settings: electroporation, Study 2 (740-20000 nM)
Strand notation (5' to 3'): a small letter for the sugar, then the base; units joined by * are phosphorothioate-linked, units joined directly phosphodiester-linked; [ ] holds rarer units or linkages, { } end groups; capitals alone tell only the bases. k = constrained ethyl (cEt); [5mC] = 5-methylcytosine; d = 2'-deoxy (DNA)
experimental readout: pIC50
Numbers only, as −log10 of the molar value.

>>> value_observed("772578 (kG*kG*kT*dA*dT*d[5mC]*dT*dG*dG*dA*dG*dT*dA*kA*kG*kG; antisense) [compound 772578]")
6.00

The following substances each have a reported value; give each one's pIC50.
1. 829995 (kT*kG*kG*dA*dG*dG*d[5mC]*dA*dG*dG*dG*d[5mC]*d[5mC]*kG*k[5mC]*kG; antisense) [compound 829995]
2. 799410 (antisense kT*k[5mC]*kT*dG*dT*dT*dT*dA*d[5mC]*dA*d[5mC]*dA*d[5mC]*kA*kT*kT) [compound 799410]
3. 801051 (antisense kG*kT*kG*dT*dT*d[5mC]*dA*dA*d[5mC]*dA*dA*dT*dG*k[5mC]*kT*kT) [compound 801051]
4. 799429 (antisense k[5mC]*kA*k[5mC]*dA*dA*dG*dT*d[5mC]*dA*d[5mC]*dA*dA*d[5mC]*kT*kG*kG) [compound 799429]
5. 798781 (CGTAAGATTCACAGCA; 3-10-3 cEt gapmer, further chemistry not given here) [compound 798781]

Response:
[5.10, 5.70, 5.40, 5.15, 5.70]

Items follow; give pIC50 for each.
1. 799564 (k[5mC]*kA*kG*dA*dT*dA*dA*d[5mC]*dA*dG*dA*dG*dT*kA*kT*kA; antisense) [compound 799564]
2. 799402 (antisense kG*kG*kT*d[5mC]*dA*d[5mC]*dT*dG*dT*dT*d[5mC]*dT*d[5mC]*kT*k[5mC]*kT) [compound 799402]
3. 830044 (k[5mC]*kG*kA*dT*dT*dG*dG*d[5mC]*dA*dG*dG*dT*dT*kA*kA*kT; antisense) [compound 830044]
4. 830170 (antisense kG*k[5mC]*kT*d[5mC]*dT*dG*dT*dT*dT*dG*dG*dA*d[5mC]*kA*kA*kG) [compound 830170]
5. 799753 (antisense k[5mC]*kG*kT*dG*dA*dG*dT*dA*dA*dA*dT*dT*d[5mC]*kT*kT*kA) [compound 799753]

Response:
1: 5.52; 2: 5.00; 3: 5.00; 4: 5.22; 5: 5.40

----------
System: human SMAD7 mRNA
Assay: Antisense inhibition of human SMAD7 mRNA expression in Hep3B cells by 3-10-3 cEt gapmers, 10,000 nM, electroporation (Example 2)
Format: cell-based
Conditions: Hep3B cells, electroporation with 10,000 nM antisense oligonucleotide, approximately 24 hours, primer probe set RTS5062, relative to untreated control cells
Strand notation (5' to 3'): a small letter for the sugar, then the base; units joined by * are phosphorothioate-linked, units joined directly phosphodiester-linked; [ ] holds rarer units or linkages, { } end groups; capitals alone tell only the bases. k = constrained ethyl (cEt); [5mC] = 5-methylcytosine; d = 2'-deoxy (DNA)
Kindly supply the reported % inhibition of SMAD7 mRNA expression values for the records listed here.
Answers are plain numbers, in %.

The following substances have reported results that may help.
>>> value_observed("798744 (antisense kA*kG*k[5mC]*dT*dG*d[5mC]*d[5mC]*dG*d[5mC]*dT*d[5mC]*d[5mC]*dT*kT*k[5mC]*kA) [compound 798744]")
12
>>> value_observed("799128 (antisense k[5mC]*k[5mC]*k[5mC]*dA*dG*dG*dG*dA*d[5mC]*dA*dT*d[5mC]*d[5mC]*k[5mC]*k[5mC]*kG) [compound 799128]")
63
>>> value_observed("772689 (kG*kT*kT*d[5mC]*dA*dT*dT*dT*dA*dA*dA*d[5mC]*d[5mC]*kT*kT*kT; antisense) [compound 772689]")
26
>>> value_observed("799129 (antisense k[5mC]*k[5mC]*kT*d[5mC]*d[5mC]*d[5mC]*dA*dG*dG*dG*dA*d[5mC]*dA*kT*k[5mC]*k[5mC]) [compound 799129]")
37
>>> value_observed("798776 (kA*k[5mC]*kA*d[5mC]*dA*dG*d[5mC]*d[5mC]*dT*d[5mC]*dT*dT*dG*kA*k[5mC]*kT; antisense) [compound 798776]")
34

Query: Please report the recorded % inhibition of SMAD7 mRNA expression for 798774 (kT*kT*kG*dA*d[5mC]*dT*dT*d[5mC]*d[5mC]*dG*dA*dG*dG*kA*kA*kT; antisense) [compound 798774] .
Response: 12
